assay.details: Mycobacterium tuberculosis growth inhibition, primary screen (AID 1259343)
run.parameters: at 10 µM
The campaign covered roughly 6,200 compounds. About 2,900 (47%) were called active. Rule as the data show it: active = inhibition above about 50%; inactive = the rest. So high a share suggests a set chosen from earlier hits. Some of the results follow.
Pick one and only one: true (1) = active, false (0) = inactive

Please indicate how the test categorized COc1ccc(CC(=O)Nc2cc(C)nn2-c2nc3c(c(=O)[nH]2)CCC3)cc1OC . true (1)

And the next one, O=C1CC(Nc2ccc3c(c2)OCCCO3)C(=O)N1CCc1ccccc1F (configuration not stated) ? true (1)

Now the compound COc1ccc(C(=O)N(C)c2nnc(C34CC5CC(CC(C5)C3)C4)s2)c(OC)c1 false (0)

Consider next the compound CN(C(=O)c1ccccc1)c1nnc(C23CC4CC(CC(C4)C2)C3)s1 in the same way. true (1)

Now the same for CCCCNC(=O)c1ccc(C)c(OCC)c1 false (0)

Please give the result for N#Cc1ccc(CNc2cccc(Br)c2)c(F)c1 too. false (0)

Input Cc1cc(C(=O)Nc2ccc(C(C)C)cc2)c(C)o1 true (1)

And the next one, CCOC(=O)Cc1csc(NC(=S)NC(=O)c2cccs2)n1 ? true (1)

Entry COc1ccc(CC(=O)Nc2cc(C)nn2-c2nc(C)c(C)c(=O)[nH]2)cc1 please false (0)

Query CC1(C)C2CCC1(C)C(NS(=O)(=O)Cc1ccccc1)C2 (configuration not stated) next false (0)

Thanks! And C(=C\c1ccccc1)/CNc1ccc2c(c1)OCCO2 ? false (0)

Then what about the compound CCOC(=O)Cc1csc(NC(=O)c2csc(-c3cc4ccccc4[nH]3)n2)n1 ? true (1)

Okay, and O=S(=O)(Nc1ccc2c(c1)OC1(CCCC1)O2)c1cccs1 ? false (0)

What do we get for CC(C)[C@H](CNC(=O)[C@@H](NC(=O)c1cccc(-c2ccccc2)n1)[C@@H](C)O)B(O)O ? false (0)

// query: CCc1c(C)nc(-n2nc(C)cc2NC(=O)Cc2ccc([N+](=O)[O-])cc2)[nH]c1=O true (1)

Consider next the compound Cn1c(=O)oc2cc(NC(=O)C3CCCC(C(F)(F)F)C3)ccc21 (configuration not stated) in the same way. false (0)

Try the compound CC1CCC(NC(=O)COc2ccccc2Br)CC1 (configuration not stated) false (0)

What do we get for Cc1cc(C(=O)Nc2ccc3c(c2)OC2(CCCC2)O3)c(C)o1 ? true (1)

Quick one: CCc1c(C)nc(-n2nc(C)cc2NC(=O)c2ccc(OC)cc2OC)[nH]c1=O false (0)

And then CCc1c(C)nc(-n2nc(C)cc2NC(=O)/C=C/c2ccc(OC)c(OC)c2)[nH]c1=O , what is it? true (1)

Check CC1(C)C2CCC1(C)C(NC(=O)COc1ccccc1Cl)C2 (configuration not stated) too. true (1)

Cc1cc(O)c(CN2CCOCC2)c2c1C(=O)/C(=C/c1cc3cc(Br)ccc3o1)O2 , same question. false (0)

====

assay.details: Mycobacterium tuberculosis growth inhibition, primary screen (AID 1259343)
run.parameters: at 10 µM
Among all 6,200 compounds or so, about 2,900 (47%) were called active. Cut-off read from the data, not from the text of the source: active = inhibition above about 50%; inactive = the rest. So high a share suggests a set chosen from earlier hits. Some of the results follow.
// allowed return values: active, inactive

Call for entry CCCc1cc(=O)oc2cc(OC(C)C)c(Cl)cc12 : inactive

What do you get for CCc1c(C)nc(-n2nc(C)cc2NC(=O)c2cccs2)[nH]c1=O ? active

Please do the same for c1ccc2c(c1)oc1c(N3CCCCCC3)ncnc12 as well. inactive

How about this compound: CC1CCN(c2ncnc3c2cnn3Cc2ccc(Cl)cc2)CC1 active

Another compound to check: NCC[C@H](O)C(=O)N[C@@H]1C[C@H](N)[C@@H](O[C@H]2O[C@H](CN)[C@@H](O)[C@H](O)[C@H]2O)[C@H](O)[C@H]1O[C@H]1O[C@H](CO)[C@@H](O)[C@H](N)[C@H]1O active

And what about the compound Cc1cc(NC(=O)c2cccs2)n(-c2nc(C)c(C)c(=O)[nH]2)n1 ? active

// query: Clc1ccc(Cn2ncc3c(N4CCN(c5cccc(Cl)c5)CC4)ncnc32)cc1 inactive

Next compound up: Clc1ccc(Cn2ncc3c(N4CCCC4)ncnc32)cc1 active

Next compound: Cc1ccc(Cn2ncc3c(N4CCC(C)CC4)ncnc32)cc1 inactive

What do you have for CC(=O)c1ccc(OC(=O)COc2cccc(OCCC(C)C)c2)cc1 ? active

Measured values drawn from PubChem BioAssay AID1259343 for this set.
